molecular target: Casein kinase I isoform alpha (Homo sapiens, UniProt P48729); assay: CSNK1A1 Assay 2
Sequence (P48729 whole entry, canonical isoform): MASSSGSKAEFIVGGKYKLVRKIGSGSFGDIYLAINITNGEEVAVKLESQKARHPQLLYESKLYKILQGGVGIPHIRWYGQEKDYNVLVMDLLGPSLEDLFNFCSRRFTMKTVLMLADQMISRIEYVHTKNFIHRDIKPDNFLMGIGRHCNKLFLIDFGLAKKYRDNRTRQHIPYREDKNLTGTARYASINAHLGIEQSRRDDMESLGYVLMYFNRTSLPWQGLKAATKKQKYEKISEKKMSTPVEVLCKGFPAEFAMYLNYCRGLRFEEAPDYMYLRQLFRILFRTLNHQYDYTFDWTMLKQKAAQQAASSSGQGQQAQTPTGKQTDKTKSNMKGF
Please provide measured pIC50 for the entries that follow.
One number for each entry, as −log10 of the molar value.

CC1(C)Cc2[nH]c(-c3ccnc(NC(=O)Cc4ccc(F)cc4)c3)c(Nc3cccc(F)n3)c2C(=O)N1 [US12227501, Example 126] = 8.35

Record pIC50 per entry; entries follow.
1. O=C(Cc1ccc(F)cc1)Nc1cc(-c2[nH]c3c(c2Nc2ccccc2)C(=O)N(CC(F)(F)F)CC3)ccn1 [US12227501, Example 36]
2. Cc1ccccc1Nc1c(-c2ccnc(NC(=O)Cc3ccc(F)cc3)c2)[nH]c2c1C(=O)NC(C)(C)C2 [US12227501, Example 113]
3. Cc1cccc(CC(=O)Nc2cc(-c3[nH]c4c(c3Nc3ccccc3)C(=O)N(C)CC4)ccn2)c1 [US12227501, Example 70]
4. CN1C(=O)c2c([nH]c(-c3ccnc(NC(=O)Cc4ccc(F)cc4)c3)c2Nc2ccccc2)CC12CCC2 [US12227501, Example 156]

Ans.
[7.95, 7.86, 8.49, 8.22]

Qu. For the molecule shown here, CC1(C)Cc2[nH]c(-c3ccnc(NC(=O)Cc4ccc(F)cc4)c3)c(Nc3cccc(F)n3)c2C(=O)N1 [US12227501, Example 127] , give the reported pIC50.
Ans. 8.32

This collection of values is drawn from BindingDB's records for patent US12227501.
